assay: NCI Yeast Anticancer Drug Screen. Data for the cln2 rad14 strain (AID 165);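 also: 0% = growth equal to vehicle treated cultures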; settings: S. cerevisiae cln2 rad14 strain, at 5.0 µM (retest, dose inferred, filed as 0.5)
This is part of a sample that, as a whole, favours compounds with a hit. Of some 79,000 tested, about 15% had one in any assay. The source made the active and inactive calls. Rule as the data show it: active = growth inhibition above about 70%; inactive = the rest.
Your reply should match one of these outcome classes. 1 for active, 0 for inactive

Solved cases below.
• Cn1nc(-c2ccc3c(c2)OCO3)[n+]([O-])c2c(=O)n(C)c(=O)nc1-2 = 0
• C/C(=N\NC(N)=S)C(CN1CCCCC1)C(C1=C(O)c2ccccc2OC1)c1ccccc1 (stereo unspecified) = 0
• COc1ccccc1OCC(COC(=O)Nc1ccc(C)cc1)OC(=O)Nc1ccc(C)cc1 (stereo unspecified) = 0
• CCOC(=O)c1cc(C)c(O)c(C(=O)OCC)c1 = 0
• O=C1c2ccccc2C(=O)c2cc(O)ccc21 = 0
• Fc1cccc(C2SCc3nc4ccccc4n32)c1F (stereo unspecified) = 0
• O=C(Nc1ccccc1O)/C(Cl)=C/Cl = 0
• O=C1NC(=Nc2ccccc2)C(=Nc2ccccc2)N1c1ccccc1 = 0
• CS(=O)(=O)OCCN(CCOS(C)(=O)=O)c1ccc(C=Nc2cc(Cl)c(O)c(Cl)c2)c(Cl)c1 = 0
• CC(=O)N(C)C1=C(Sc2ccc(C)cc2)C(=O)c2ccccc2C1=O = 1

Data request: What did the test return for `N#CCc1nc(Cl)cc(Cl)n1` ?
Data returned: 0

Data request: What did the test return for `Cc1c(Cl)cc2[nH]c(C(F)(F)F)nc2c1Cl` ?
Data returned: 0

Data request: What did the test return for `CCC(C)(C)NCCCCCNc1cc(OC)cc2cccnc12` ?
Data returned: 0

Data request: What did the test return for COC1C(N)C(OC2C(Oc3cccc4c(O)c5c(=O)oc6ccc(C)c7c(=O)oc(c34)c5c67)OC(C)C(O)C2(C)O)OC(C)C1O (stereo unspecified) ?
Data returned: 0
